System: Ryegrass, Italian (Italian ryegrass, Lolium multiflorum)
protocol: Test A preemergence, Ryegrass, Italian
Assay type: in vivo
recorded-conditions: Lolium multiflorum, pre-emergence, 240 h; Preemergence, 125 g ai/ha; visual injury on 0 to 100 scale (0 no effect, 100 complete control), approximately 10 days; read-out: Ryegrass, Italian plant response rating
Excerpt: Seeds of plant species selected from barnyardgrass (Echinochloa crus-galli), kochia (Bassia scoparia), ragweed (common ragweed, Ambrosia artemisiifolia), Ryegrass, Italian (Italian ryegrass, Lolium multiflorum), Foxtail, Giant (giant foxtail, Setaria faberi), and pigweed (Amaranthus retroflexus) were planted into a blend of loam soil and sand and treated preemergence with a directed soil spray using test chemicals formulated in a non-phytotoxic solvent mixture which included a surfactant. […]
observable: pest or weed control at 125 g/ha (%)
Reply numerically in %, unit not repeated.

Prompt line: Please supply the value of reported pest or weed control at 125 g/ha for the item `Cc1cc(C)c(N(COC(=O)C(C)(C)C)S(=O)(=O)C(F)(F)F)cc1C1=NOC2(CCCCC2)C1`
Response line: 0

Prompt line: Provide one value: measured pest or weed control at 125 g/ha of `Cc1c(NS(=O)(=O)C(F)(F)F)cc(C(=O)N(C)C)c(C)c1F`
Response line: 100

Prompt line: Read off the recorded pest or weed control at 125 g/ha for `Cc1cc(C)c(N(COC(=O)C(C)(C)C)S(=O)(=O)C(F)(F)F)cc1C1=NO[C@@H]2CCC[C@H]12`
Response line: 40

Prompt line: Supply reported pest or weed control at 125 g/ha belonging to this molecule: `Cc1cc(Cl)c(NS(=O)(=O)C(F)(F)F)cc1C(=O)N1CCCCC1`
Response line: 90

----------
Test system: kochia (Bassia scoparia)
protocol: Test A postemergence, kochia
Format: in vivo
recorded-conditions: Postemergence, 1000 g ai/ha; visual injury, 0 to 100 scale (0 no effect, 100 complete control), approx. 10 days
observable: Plant response rating, Kochia
The answer should be written as a number, with no unit following it.

Prompt line: Give the measured Plant response rating, Kochia for Cc1cc(C)c(C(=O)N2CCC(F)CC2)cc1NS(=O)(=O)C(F)(F)F [Compound 8]
Response line: 80

Prompt line: Specify Plant response rating, Kochia for Cc1cc(C)c(C(=O)N2CCN(C)CC2)cc1NS(=O)(=O)C(F)(F)F [Compound 10] and stop.
Response line: 40

Prompt line: Please give measured Plant response rating, Kochia of the following entry: Cc1ccc(C(=O)N2CCCCC2)cc1NS(=O)(=O)C(F)(F)F [Compound 259]
Response line: 40

Prompt line: Please indicate Plant response rating, Kochia recorded for Cc1cc(C)c(C(=O)N2CCC(C#N)CC2)cc1NS(=O)(=O)C(F)(F)F [Compound 11]
Response line: 60

Prompt line: Hello, please tell me recorded Plant response rating, Kochia for this one: Cc1ccc(C(=O)N2CCC(C)CC2)cc1NS(=O)(=O)C(F)(F)F [Compound 7]
Response line: 40

----------
Tested on: barnyardgrass (Echinochloa crus-galli)
protocol: Test A preemergence, barnyardgrass
Type: in vivo
recorded-conditions: Preemergence, 125 g ai/ha; visual injury on 0 to 100 scale (0 no effect, 100 complete control), approximately 10 days
observable: Barnyardgrass plant response rating
Give a plain numeric answer without units written out.

Prompt line: Provide Barnyardgrass plant response rating, tested on barnyardgrass (Echinochloa crus-galli), for `CSc1cc(-c2cc(NS(=O)(=O)C(F)(F)F)c(C)cc2C)c(=O)n(C)n1` .
Response line: 50

Prompt line: Please report Barnyardgrass plant response rating with barnyardgrass (Echinochloa crus-galli) for item `Cc1cc(C(F)(F)F)c(NS(=O)(=O)C(F)(F)F)cc1C(=O)N(C)C` .
Response line: 60

Prompt line: Specify the recorded Barnyardgrass plant response rating for `Cc1cc(-c2cc(N(S(=O)(=O)C(F)(F)F)S(=O)(=O)C(F)(F)F)c(C)cc2C)c(=O)n(C)n1` , system: barnyardgrass (Echinochloa crus-galli).
Response line: 90

Prompt line: Write down the reported Barnyardgrass plant response rating (system: barnyardgrass (Echinochloa crus-galli)) of CCC(C)C(=O)OCN(c1cc(C2=NOC3(CCCC3)C2)c(C)cc1C)S(=O)(=O)C(F)(F)F (centres unmarked)
Response line: 90

Prompt line: Given `C#CCN(C)C(=O)c1cc(N(S(=O)(=O)C(F)(F)F)S(=O)(=O)C(F)(F)F)c(C)c(F)c1C` , report its Barnyardgrass plant response rating on barnyardgrass (Echinochloa crus-galli).
Response line: 90

Prompt line: # assay system barnyardgrass (Echinochloa crus-galli): give Barnyardgrass plant response rating of `COc1cc(-c2cc(N(S(=O)(=O)C(F)(F)F)S(=O)(=O)C(F)(F)F)c(C)cc2C)c(=O)n(C)n1`
Response line: 70

Prompt line: Fetch value of Barnyardgrass plant response rating on barnyardgrass (Echinochloa crus-galli) for `COc1ccnn(-c2cc(NS(=O)(=O)C(F)(F)F)c(C)cc2C)c1=O` .
Response line: 90

Prompt line: Enter recorded Barnyardgrass plant response rating with barnyardgrass (Echinochloa crus-galli) for COC1CCCN(C(=O)c2cc(NS(=O)(=O)C(F)(F)F)c(C)c(F)c2C)C1 (centres unmarked) here.
Response line: 90

----------
Tested on: wheat (Triticum aestivum)
protocol: Test A1 preemergence, wheat
Type: in vivo
recorded-conditions: 125 g ai/ha, 0 to 100 scale, 0 no effect, 100 complete control
observable: Plant response rating, Wheat
Hey, just send me the number, nothing else.

Prompt line: Report measured Plant response rating, Wheat; entry is Cc1cc(C)c(C2=NOC3CCCCCC23)cc1NS(=O)(=O)C(F)(F)F (centres unmarked)
Response line: 90

Prompt line: Please report the measured Plant response rating, Wheat for `Cc1c(NS(=O)(=O)C(F)(F)F)cc(C(=O)N2CCSCC2)c(C)c1C`
Response line: 50

Prompt line: Provide Plant response rating, Wheat value for the following compound: Cc1cc(C)c(N(COC(=O)C(C)C)S(=O)(=O)C(F)(F)F)cc1C1=NOC2CCCC12 (centres unmarked)
Response line: 80

Prompt line: Indicate its recorded Plant response rating, Wheat; the compound in question is Cc1c(NS(=O)(=O)C(F)(F)F)cc(C(=O)N2CC(C)OC(C)C2)c(C)c1C (centres unmarked)
Response line: 30

Prompt line: Provide Plant response rating, Wheat value for the following compound: `Cc1c(C(=O)N2C[C@@H](C)O[C@@H](C)C2)cc(N(COC(=O)C(C)(C)C)S(=O)(=O)C(F)(F)F)c(C)c1C`
Response line: 0

Prompt line: Return value of Plant response rating, Wheat for input CCC1ON=C(c2cc(NS(=O)(=O)C(F)(F)F)c(C)cc2C)C1CC (centres unmarked) , no commentary.
Response line: 70

Prompt line: Input `Cc1c(C(=O)N2CCC(F)CC2)cc(N(COC(=O)C(C)(C)C)S(=O)(=O)C(F)(F)F)c(C)c1C` , output reported Plant response rating, Wheat.
Response line: 0

Prompt line: Note down Plant response rating, Wheat recorded for Cc1cc(Br)c(C2=NOC3CCCC23)cc1NS(=O)(=O)C(F)(F)F (centres unmarked)
Response line: 20

Prompt line: Tell me its Plant response rating, Wheat given `Cc1c(C(=O)N(C)C)cc(NS(=O)(=O)C(F)(F)F)c(Cl)c1F` as the entry.
Response line: 50

Prompt line: Write down Plant response rating, Wheat measured for item CCC1CC(c2cc(NS(=O)(=O)C(F)(F)F)c(C)cc2C)=NO1 (centres unmarked)
Response line: 100

Prompt line: Provide measured Plant response rating, Wheat value, entry: Cc1cc(C)c(N(COC(=O)OC(C)C)S(=O)(=O)C(F)(F)F)cc1C1=NOC2CCCC12 (centres unmarked)
Response line: 50

Prompt line: Return value of Plant response rating, Wheat for input COC1CCC2(CC1)CCN(c1cc(NS(=O)(=O)C(F)(F)F)c(C)cc1C)C2=O (centres unmarked) , no commentary.
Response line: 90

Prompt line: Provide one value: measured Plant response rating, Wheat of `Cc1c(NS(=O)(=O)C(F)(F)F)cc(C(=O)N2CCOCC2)c(C)c1Cl`
Response line: 40

Prompt line: Please report the measured Plant response rating, Wheat for Cc1cc(C)c(C2=NOC(OCC(C)C)C2)cc1NS(=O)(=O)C(F)(F)F (centres unmarked)
Response line: 50

Prompt line: // Input: `CCOC(=O)N(c1cc(C(=O)N2CCOCC2)c(C)c(C)c1C)S(=O)(=O)C(F)(F)F` . Output its Plant response rating, Wheat only.
Response line: 60

Prompt line: Tell us which Plant response rating, Wheat value is on record for `Cc1c(NS(=O)(=O)C(F)(F)F)cc(C(=O)N2CCC(F)CC2)c(C)c1C`
Response line: 30

Prompt line: Let me know recorded Plant response rating, Wheat for CCCCOC1CC(c2cc(NS(=O)(=O)C(F)(F)F)c(C)cc2C)=NO1 (centres unmarked) , thanks.
Response line: 50

----------
Test system: kochia (Bassia scoparia)
protocol: Test A1 postemergence, kochia
Type: in vivo
recorded-conditions: 31 g ai/ha, postemergence; 0 to 100 scale (0 no effect, 100 complete control)
observable: Kochia plant response rating

Prompt line: Provide measured Kochia plant response rating value, entry: CCOC(=O)N(c1cc(C(=O)N2C[C@@H](C)O[C@H](C)C2)c(C)c(C)c1C)S(=O)(=O)C(F)(F)F (relative stereo)
Response line: 0

Prompt line: // fetch Kochia plant response rating given entry `Cc1c(NS(=O)(=O)C(F)(F)F)cc(C(=O)N2CCC(C)CC2)c(C)c1C`
Response line: 0

Prompt line: Provide Kochia plant response rating value for the following molecule: `C#CCN(C)C(=O)c1cc(N(COC(=O)C(C)(C)C)S(=O)(=O)C(F)(F)F)c(C)c(C)c1C`
Response line: 40

Prompt line: Annotate the molecule COC1CCC2(CC1)CCN(c1cc(NS(=O)(=O)C(F)(F)F)c(C)cc1C)C2=O (stereo not shown) with its measured Kochia plant response rating.
Response line: 20

Prompt line: For Cc1c(C(=O)N2C[C@@H](C)O[C@H](C)C2)cc(N(COC(=O)C(C)(C)C)S(=O)(=O)C(F)(F)F)c(C)c1C (relative stereo) , write its Kochia plant response rating.
Response line: 0

Prompt line: Specify Kochia plant response rating for `Cc1cc(Cl)c(NS(=O)(=O)C(F)(F)F)cc1N1CC2(CCCCC2)OC1=O` and stop.
Response line: 40

Prompt line: Look up and state reported Kochia plant response rating for Cc1cc(C)c(C2=NOC(C(C)C)C2)cc1NS(=O)(=O)C(F)(F)F (stereo not shown)
Response line: 0
